CONDITION_SUMMARY: buffer; pH 7.4; 200.0 µM
Measured log10(solubility kinetic), listed per entry.
Plainly stated, the numbers are log10 of solubility kinetic given in µg/mL.

These solved cases illustrate the format of a correct answer.
CCOC(=O)c1c(C)[nH]c(C(=O)COc2ccc3ccc(=O)oc3c2)c1C	0.96
COC(=O)[C@H](c1ccccc1Cl)N1CCc2sccc2C1	1.18
Cc1nc(SCC(=O)Nc2cccc(S(=O)(=O)N3CCOCC3)c2)nc(C)c1C	1.47
CN(CC(=O)Nc1ccccc1C(=O)Nc1ccccc1)C1CCCCC1	0.38
COc1ccc(NC(=S)N2CCc3cc(OC)c(OC)cc3C2)cc1	0.18

Please turn your attention to the following entry.
For reference, reported log10(solubility kinetic) for CC(=O)SCC[N+](C)(C)C.[Cl-] stands at 1.47

----------
The compounds listed here are annotated with their solubility kinetic.
CONDITION_SUMMARY: buffer; pH 7.4; 200.0 µM

These recorded examples may help you get a feel for the data.
NC(=O)C1CCN(C(=O)CC2(CC(=O)O)CCCC2)CC1	> 44.5 µg/mL
CCOC(=O)C1C2C=CC3(CN(Cc4ccccc4)C(=O)C13)O2 (centres undefined)	> 47 µg/mL

# ---- query compound ----
solubility kinetic for COC(=O)c1ccc(CN2C(=O)C3CCCCC3C2=O)o1 (centres undefined) is > 43.7 µg/mL

----------
CONDITION_SUMMARY: buffer; pH 7.4; 200.0 µM
READOUT_LABEL: solubility kinetic

Worked set:
O=C1Nc2ccccc2CCc2ccccc21	> 33.5 µg/mL
COc1ccc(CCNC(=O)c2ccc3nc[nH]c3c2)cc1	> 44.3 µg/mL
Cc1cccc(C(=O)Nc2ccc3ccccc3c2)c1	< 0.6 µg/mL

Query CCOc1ccc(S(=O)(=O)N2CCNC(=O)C2)cc1 yields solubility kinetic of > 42.6 µg/mL

Entry under test: CN(C)C(=O)c1ccc(NC(=O)c2ccccc2-c2ccccc2)cc1 . Its solubility kinetic was > 51.7 µg/mL

----------
Listed here: items and their measured solubility kinetic.
CONDITION_SUMMARY: buffer; pH 7.4; 200.0 µM

COc1ccc(NC(=O)CNC(=O)c2c(C)nn(C)c2Cl)cc1	> 50.5 µg/mL
Cc1ccc(C(=O)OCC(=O)NC2CCS(=O)(=O)C2)c(C)c1 (stereo unspecified)	> 48.8 µg/mL
COC(=O)CNC(=O)CCc1nnc(C2(c3ccc(Cl)cc3)CCC2)o1	> 56.7 µg/mL

Measured solubility kinetic of O=C(NCCCN1CCCC1=O)Nc1ccc(Cl)cc1Cl : > 49.5 µg/mL

Note to self: solubility kinetic recorded for O=C(NNC(=O)c1ccc2nc[nH]c2c1)c1ccccc1 was > 42 µg/mL

Notebook: Cc1nc(N2CCN(C(=O)c3ccco3)CC2)[nH]c(=O)c1C , solubility kinetic read as > 45.3 µg/mL

----------
CONDITION_SUMMARY: buffer; pH 7.4; 200.0 µM
READOUT_LABEL: solubility kinetic (µg/mL)
A number alone suffices; assume µg/mL.

Summary for this molecule, CSCC[C@H](NC(=O)Nc1cccc(Br)c1)C(=O)O : solubility kinetic is 39.4

Per the records, this molecule ( O=C(N1CCN(S(=O)(=O)c2ccc(Cl)cc2)CC1)n1ccnc1 ) has solubility kinetic equal to 52.8

Value of measured solubility kinetic for the entry CC(C)(CNc1ccc(C(F)(F)F)cc1[N+](=O)[O-])N1CCOCC1 : 5.5
